Molecular target: T1, monkey PRLR on HEK293/mfPRLR cells (Macaca fascicularis, UniProt A0A2K5WXK1)
T1 construct: HA; expressed in transfected cells; host or cells: HEK293
T1 sequence (A0A2K5WXK1 25-619): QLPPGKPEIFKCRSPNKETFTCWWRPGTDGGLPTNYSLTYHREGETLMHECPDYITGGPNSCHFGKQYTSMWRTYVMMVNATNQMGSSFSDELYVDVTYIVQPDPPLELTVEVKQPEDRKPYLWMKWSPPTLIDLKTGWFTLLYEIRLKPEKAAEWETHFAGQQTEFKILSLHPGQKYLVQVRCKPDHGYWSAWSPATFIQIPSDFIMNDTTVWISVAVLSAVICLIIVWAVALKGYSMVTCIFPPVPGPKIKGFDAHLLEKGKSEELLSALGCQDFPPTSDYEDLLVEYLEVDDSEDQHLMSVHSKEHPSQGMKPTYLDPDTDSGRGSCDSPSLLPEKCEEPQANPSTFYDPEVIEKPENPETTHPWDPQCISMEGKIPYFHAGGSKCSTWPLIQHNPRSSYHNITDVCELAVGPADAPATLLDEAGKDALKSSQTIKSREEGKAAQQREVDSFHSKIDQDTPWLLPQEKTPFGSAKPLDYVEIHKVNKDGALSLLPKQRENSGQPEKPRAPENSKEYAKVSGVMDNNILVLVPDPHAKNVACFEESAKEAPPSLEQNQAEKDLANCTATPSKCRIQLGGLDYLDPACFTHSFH
Assay: FACS cell surface binding
measure: FACS Cell Binding (Fold Above Background)
Write it as a number; the unit Fold Above Background goes unstated.

Memo: H1H6774P: fully human anti-PRLR antibody, human IgG1 Fc; HCVR/LCVR SEQ ID NOs 34/42 (antibody, V domains shown) VH: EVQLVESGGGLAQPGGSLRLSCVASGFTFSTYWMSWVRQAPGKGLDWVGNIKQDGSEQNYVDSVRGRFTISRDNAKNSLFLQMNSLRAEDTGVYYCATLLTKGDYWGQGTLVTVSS VL: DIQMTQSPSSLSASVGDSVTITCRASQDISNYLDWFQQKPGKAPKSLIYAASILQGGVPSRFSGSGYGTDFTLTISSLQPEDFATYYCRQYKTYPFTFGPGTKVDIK , reported FACS Cell Binding: 29
